Where these numbers come from: patent US7183440B2

The entries below come with measured CC50 at 24 h values attached.
# Run description: in vitro
# Format: cell-based
# Cond: monkey, 50% lethal dose/concentration, neutral red assay, 37RC cells, read-out: LC50/μM
Form entry: value (µM) — number only.

CC(C)/C=C1/C(=O)C=C[C@@H]1NC(=O)OC(C)(C)C [CTC-199] = 4
CC(C)(C)OC(=O)NC1C=CC(=O)/C1=C/c1ccc(Cl)cc1 (stereo not shown) [CTC-247] = 3.4
CC(C)/C=C1/C(=O)C=CC1NC(=O)c1ccccc1 (stereo not shown) [CTC-172] = 4

Exercise: Answer with the recorded CC50 at 24 h for the compound listed here: O=C1C=CC(NC(=O)c2ccccc2)C1 (stereo not shown) [CTC-171, N-(4-Oxocyclopent-2-enyl)-benzamide]
Key: 59
